Quick reference: growth inhibition of the listed items.
Assay: NCI Yeast Anticancer Drug Screen. Data for the mec2-1 strain (AID 157)
Conditions: S. cerevisiae mec2-1 strain, at 50.0 µM, stronger effect = higher value
About 79,000 compounds went through this panel and 15% of them were active in at least one assay; those are over-represented in the sample as a whole. Calls of active or inactive are those of the source. Rule as the data show it: active = growth inhibition above about 70%; inactive = the rest.

The cases that follow already have their growth inhibition on record.
- COc1cc(/C=C2\CCc3ccccc3C2=O)cc(OC)c1OC: 25.6% (inactive)
- CCC(C)COC(=O)c1ccc(N=Cc2ccc(C=Nc3ccc(C(=O)OCC(C)CC)cc3)cc2)cc1 (stereo not drawn): 49.6% (inactive)
- O=C1C2CC[C@@H]3C(=O)C(Cl)(Cl)[C@@H]3CCC2C1(Cl)Cl (stereo partly drawn): 81.9% (active)

Input line: Fill in growth inhibition for record "NNC(=O)CCc1ccc2ccc3ccccc3c2c1"
Output line: -10.2% (inactive)

Input line: Fill in growth inhibition for record "COC(=O)c1cc(-c2ccc(C)cc2)[nH]c(=O)c1C#N"
Output line: 56.9% (inactive)

###

Assay: NCI Yeast Anticancer Drug Screen. Data for the rad50 strain (AID 155);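 also: 0% = growth of vehicle-only cultures of the same strain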
Details: S. cerevisiae rad50 strain growth inhibition; at 3.7 µM; stronger effect = higher value
Protocol: Growth inhibition of yeast strains with defined genetic alterations is measured as a screen for potential anti-cancer activity. Selected strains with alterations in DNA damage repair or cell cycle control were exposed to compounds and growth inhibition was measured relative to vehicle treated controls. The strain used in this assay is rad50
About 79,000 compounds went through this panel and 15% of them were active in at least one assay; those are over-represented in the sample as a whole.
Observed property: growth inhibition (%)
Express it in %; write the number only.

- CC/C(=C(\c1ccccc1)c1ccc(OCCN(C)C)cc1)c1ccccc1: 21
- O=[N+]([O-])c1cccc2nccc(NCCCO)c12: 3
- CC(C)(Br)C(=O)/C=C/c1ccc(Cl)c(Cl)c1: 3
- COc1cc2ccc(/C=C\[N+](=O)[O-])cc2cc1OC: 26
- CC(=O)SCCC[Si](C)(C)CCCSC(C)=O: 2
- CC1OCC2OC(C)OC(C3C4=C(CC(C)(C)CC4=O)OC4=C3C(=O)CC(C)(C)C4)C2O1 (configuration not stated): -32

Input line: Fill in growth inhibition for record "CC(=O)Nc1ccc(SC(C)=O)cc1"
Output line: -4

Input line: Fill in growth inhibition for record "Clc1cccc(C(Nc2nncs2)Nc2nncs2)c1Cl"
Output line: 48

Input line: Fill in growth inhibition for record "CN(C)c1ccc(C(C#N)=C(C#N)C#N)cc1"
Output line: -8

Input line: Fill in growth inhibition for record CCc1ncnc2cc(OCC3CO3)c(OC)cc12 (configuration not stated)
Output line: 44

Input line: Fill in growth inhibition for record "c1ccc(-c2nc3cccnc3s2)cc1"
Output line: 9

Input line: Fill in growth inhibition for record "CCC(=O)OCCn1c2nc(=O)[nH]c(=O)c-2nc2cc(C)c(C)cc21"
Output line: -17

###

Assay: NCI Yeast Anticancer Drug Screen. Data for the rad50 strain (AID 155);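 also: 0% = growth of vehicle-only cultures of the same strain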
Details: S. cerevisiae rad50 strain growth inhibition; at 5.0 µM (retest, dose inferred, filed as 0.5)
About 79,000 compounds went through this panel and 15% of them were active in at least one assay; those are over-represented in the sample as a whole. The source made the active and inactive calls. No stated cut-off is given here; in the data, active means growth inhibition above about 70%; inactive means the rest.
Outcome (select one): active, inactive

* C=C1CC(Cn2cc(Br)c(=O)[nH]c2=O)(c2ccc(-c3ccccc3)cc2)OC1=O (configuration not stated) | inactive
* CC(C)C1=CC2=C[C@H](O)[C@H]3C(C)(C)CCC[C@]3(C)C2=C(O)C1=O | inactive

Input line: Dear all, I need the recorded test outcome for Nc1ccccc1CC(O)C(=O)O (configuration not stated) , thank you.
Output line: inactive

Input line: Dear all, I need the recorded test outcome for "Cn1c2ccccc2c(=O)c2cc(NC(=O)CCCCC(=O)Nc3ccc4c(c3)c(=O)c3ccccc3n4C)ccc21" , thank you.
Output line: inactive

Input line: Dear all, I need the recorded test outcome for "CC(C)c1cc(C(C)C)c(O)c(C([O-])[O-])c1.CC(C)c1cc(C(C)C)c(O)c(C([O-])[O-])c1.CC(C)c1cc(C(C)C)c(O)c(C([OH2+])[OH2+])c1.CC(C)c1cc(C(C)C)c(O)c(C([OH2+])[OH2+])c1.[Cu+2].[Cu+2].[OH3+].[OH3+]" , thank you.
Output line: inactive

Input line: Dear all, I need the recorded test outcome for "CCc1ccc(NS(=O)(=O)c2ccccc2)c([N+](=O)[O-])c1" , thank you.
Output line: inactive

Input line: Dear all, I need the recorded test outcome for "CCOC(=O)C1=C(C(=O)c2ccccc2)C(c2ccccc2[N+](=O)[O-])C(C(=O)c2ccccc2)=C(C(=O)OCC)N1" , thank you.
Output line: inactive

Input line: Dear all, I need the recorded test outcome for "S=c1[nH]nc(Nc2ccc(Cl)cc2)s1" , thank you.
Output line: inactive

Input line: Dear all, I need the recorded test outcome for "O=CC=C(c1ccccc1)c1ccccc1" , thank you.
Output line: inactive

###

Experiment: NCI Yeast Anticancer Drug Screen. Data for the bub3 strain (AID 167)
Settings: S. cerevisiae bub3 mutant strain, at 11.0 µM, stronger effect = higher value
Description: Growth inhibition of yeast strains with defined genetic alterations is measured as a screen for potential anti-cancer activity. Selected strains with alterations in DNA damage repair or cell cycle control were exposed to compounds and growth inhibition was measured relative to vehicle treated controls. The strain used in this assay is bub3
About 79,000 compounds went through this panel and 15% of them were active in at least one assay; those are over-represented in the sample as a whole.
The label depends only on growth inhibition: criterion met if it is at least 10%, criterion not met if it is smaller.

Input line: Test whether the compound "O=C1Nc2ccccc2/C1=C/COc1ccccc1" records growth inhibition of 10% or higher.
Output line: criterion met

Input line: Test whether the compound "Cn1c2ccccc2c(=O)c2cc(NC(=O)CCCCC(=O)Nc3ccc4c(c3)c(=O)c3ccccc3n4C)ccc21" records growth inhibition of 10% or higher.
Output line: criterion not met

Input line: Test whether the compound "O=[N+]([O-])c1cccc([N+](=O)[O-])c1S(=O)(=O)c1ccccc1" records growth inhibition of 10% or higher.
Output line: criterion met

Input line: Test whether the compound "CN(Cc1cnc2nc(N)nc(N)c2n1)c1ccc(C(=O)N[C@@H](CCC(=O)O)C(=O)O)cc1" records growth inhibition of 10% or higher.
Output line: criterion not met

Input line: Test whether the compound "O=C(O)c1ccccc1NC(=S)c1ccccc1" records growth inhibition of 10% or higher.
Output line: criterion not met

Input line: Test whether the compound "CCC(=O)c1cccc2ccccc12" records growth inhibition of 10% or higher.
Output line: criterion not met

###

Quick reference: growth inhibition of the listed items.
Assay: NCI Yeast Anticancer Drug Screen. Data for the rad18 strain (AID 177)
Settings: S. cerevisiae rad18 mutant growth inhibition; at 3.7 µM; stronger effect = higher value
Compounds without any hit were thinned out: in the full panel of roughly 79,000, 15% have a hit. Active and inactive are the calls of the source. No stated cut-off is given here; in the data, active means growth inhibition above about 70%; inactive means the rest.

The cases that follow already have their growth inhibition on record.
- O=C(c1cc(Br)ccc1O)c1cc(Br)ccc1O: 89% (active)
- C/C(=N\NC(=S)N1CCCCC1)c1cccc(C)n1: 90% (active)

Input line: Fill in growth inhibition for record "Cc1ccc(-c2ccc(Nc3c4ccccc4nc4ccccc34)cc2)cn1"
Output line: -10% (inactive)

Input line: Fill in growth inhibition for record "COc1ccc(Br)c(C(=O)Sc2nnnn2-c2cccc(Cl)c2)c1"
Output line: -10% (inactive)

Input line: Fill in growth inhibition for record "N/C(=N\OC(=O)NC(Cl)=C(Cl)Cl)c1cc(C(F)(F)F)cc(C(F)(F)F)c1"
Output line: -21% (inactive)

###

Quick reference: growth inhibition of the listed items.
Assay: NCI Yeast Anticancer Drug Screen. Data for the rad50 strain (AID 155);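 also: 0% = growth of vehicle-only cultures of the same strain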
Settings: S. cerevisiae rad50 strain growth inhibition; at 33.0 µM; stronger effect = higher value
The panel holds about 79,000 compounds, 15% with a hit somewhere; the sample as a whole holds those more often.
Express it in %; write the number only.

The cases that follow already have their growth inhibition on record.
* Cc1cc(N=Nc2ccc(S(=O)(=O)[O-])cc2)cc(C(=O)[O-])c1[O-].NC1CCCCC1N.[Na+].[Pt+4] | 98
* Nc1ccc2c(c1)C(=O)c1cccc(N)c1C2=O | 95
* CC(C)[N+]([O-])(CCCNc1c2ccccc2nc2cccc([N+](=O)[O-])c12)C(C)C | 93

Input line: Fill in growth inhibition for record "S=C(Nc1ccc(Cl)c(Cl)c1)SCc1ccc2c(c1)OCO2"
Output line: 99

Input line: Fill in growth inhibition for record "Cc1ccc(S(=O)(=O)NNC(=S)Nc2cccc3ccccc23)cc1"
Output line: 2

Input line: Fill in growth inhibition for record O=C(Nc1ccccc1)C(=O)C(C(=O)c1ccccc1)C(c1ccccc1)c1ccccc1 (centres undefined)
Output line: 26

Input line: Fill in growth inhibition for record "O=C1Nc2ccc(Cl)c(I)c2C1=O"
Output line: 26

The measurements presented in this section are drawn from PubChem BioAssay (NCI).
